endpoint: melting point

{"structure-string": "Cc1cccc(-c2ccc(C(=O)N3Cc4cccn4Cc4ccccc43)cc2)c1", "result": "128 to 130 °C"}

Kindly give each listed record's melting point.
1. O=C(c1ccc(-c2ccccc2)cc1)N1Cc2cccnc2Nc2ccccc21
2. CN1c2ccccc2CN(C(=O)c2ccc(-c3ccccc3)cc2)c2ccccc21
3. CN1c2ccccc2N(C(=O)c2ccc(-c3ccccc3)cc2)Cc2cccnc21
4. O=C(c1ccc(-c2ccccc2)cc1)N1Cc2ccccc2Nc2ccccc21

Solution:
["175 to 177 °C", "198 to 201 °C", "220 to 223 °C", "180 to 182 °C"]

Hello, I would appreciate it if you could give melting point for each entry below.
1. COc1ccc(-c2ccc(C(=O)N3Cc4cccn4Cc4ccccc43)cc2)cc1
2. COc1ccccc1-c1ccc(C(=O)N2Cc3cccn3Cc3ccccc32)cc1
3. O=C(c1ccc(-c2ccccc2)nc1)N1Cc2cccn2Cc2ccccc21
4. O=C(c1ccc(-c2ccccc2)cc1)N1CCCCc2sccc21

Solution:
1. 187 to 189 °C
2. 145 to 147 °C
3. 171 to 174 °C
4. 164 to 166 °C

###

Target: Vasopressin V2 (Rattus norvegicus)
Construct: Vasopressin V2 Agonist Effects of Test Compounds in Normal Conscious Water-Loaded Rats; from tissue; host or cells: whole animal: conscious Sprague-Dawley rats (kidney collecting ducts in vivo)
Experiment: Vasopressin V2 agonist effects of test compounds in normal conscious water-loaded rats
Type: in vivo
Conditions: percent increase in osmolality vs control; oral dose of 10 mg/Kg; urine collected for four hours; Sprague-Dawley (CD) rats
endpoint: Urinary Osmolality (% increase) (%)
Numbers only, in %.

{"structure-string": "Cc1cccc(-c2ccc(C(=O)N3Cc4cccn4Cc4ccccc43)cc2)c1", "system-under-test": "Vasopressin V2 (Rattus norvegicus)", "quantitative-readout": 33}
{"structure-string": "O=C(c1ccc(-c2ccccc2)cc1)N1Cc2cccnc2Nc2ccccc21", "system-under-test": "Vasopressin V2 (Rattus norvegicus)", "quantitative-readout": 151}
{"structure-string": "O=C(c1ccc(-c2ccccc2)cc1)N1CCCCc2sccc21", "system-under-test": "Vasopressin V2 (Rattus norvegicus)", "quantitative-readout": 73}

Dear reader, for each entry below, please note its Urinary Osmolality (% increase).
1. O=C(c1ccc(-c2ccccc2)nc1)N1Cc2cccn2Cc2ccccc21
2. COc1ccccc1-c1ccc(C(=O)N2Cc3cccn3Cc3ccccc32)cc1
3. O=C(c1ccc(-c2ccccc2)cc1)N1Cc2ccccc2Nc2ccccc21
4. COc1ccc(-c2ccc(C(=O)N3Cc4cccn4Cc4ccccc43)c(C)c2)cc1
5. CN1c2ccccc2CN(C(=O)c2ccc(-c3ccccc3)cc2)c2ccccc21
6. CN1c2ccccc2N(C(=O)c2ccc(-c3ccccc3)cc2)Cc2cccnc21
7. COc1ccc(-c2ccc(C(=O)N3Cc4cccn4Cc4ccccc43)cc2)cc1

Solution:
[156, 163, 247, 234, 189, 26, 78]

###

Target: Vasopressin V2 (Rattus norvegicus)
Construct: Vasopressin V2 Agonist Effects of Test Compounds in Normal Conscious Water-Loaded Rats; from tissue; host or cells: whole animal: conscious Sprague-Dawley rats (kidney collecting ducts in vivo)
Test: Vasopressin V2 agonist effects of test compounds in normal conscious water-loaded rats
Type: in vivo
Conditions: percent decrease in urine volume vs control; oral dose of 10 mg/Kg; urine collected for four hours; Sprague-Dawley (CD) rats
With a cut-off of 40%, any Urine Volume (% decrease) strictly below it is called Y; any Urine Volume (% decrease) meeting it or above is called N.

Exercise: hey, is Urine Volume (% decrease) for CN1c2ccccc2N(C(=O)c2ccc(-c3ccccc3)cc2)Cc2cccnc21 lower than 40% or not?
Solution: Y

###

Target: Vasopressin V2 (Rattus norvegicus, UniProt Q00788)
Construct: Vasopressin V2 Agonist Effects of Test Compounds in Normal Conscious Water-Loaded Rats; from tissue; host or cells: whole animal: conscious Sprague-Dawley rats (kidney collecting ducts in vivo)
Sequence (Q00788 whole entry): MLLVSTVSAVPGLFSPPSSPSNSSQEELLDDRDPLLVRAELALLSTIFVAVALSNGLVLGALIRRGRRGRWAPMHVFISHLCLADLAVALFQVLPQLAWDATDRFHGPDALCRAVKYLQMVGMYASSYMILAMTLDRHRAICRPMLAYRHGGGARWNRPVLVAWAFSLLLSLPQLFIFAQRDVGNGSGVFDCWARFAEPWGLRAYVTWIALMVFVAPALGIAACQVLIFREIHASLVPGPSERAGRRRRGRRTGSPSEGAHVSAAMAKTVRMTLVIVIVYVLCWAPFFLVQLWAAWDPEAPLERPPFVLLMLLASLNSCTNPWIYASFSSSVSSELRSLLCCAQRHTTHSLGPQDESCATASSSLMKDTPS
Test: Vasopressin V2 agonist effects of test compounds in normal conscious water-loaded rats
Format: in vivo
Conditions: percent decrease in urine volume vs control; oral dose of 10 mg/Kg; urine collected for four hours; Sprague-Dawley (CD) rats
Hi there, I'd appreciate the recorded Urine Volume (% decrease) for every entry that follows.
One number for each entry, in %.

{"structure-string": "O=C(c1ccc(-c2ccccc2)nc1)N1Cc2cccn2Cc2ccccc21", "Urine Volume (% decrease) / %": 62}
{"structure-string": "CN1c2ccccc2CN(C(=O)c2ccc(-c3ccccc3)cc2)c2ccccc21", "Urine Volume (% decrease) / %": 70}
{"structure-string": "COc1ccc(-c2ccc(C(=O)N3Cc4cccn4Cc4ccccc43)c(C)c2)cc1", "Urine Volume (% decrease) / %": 60}
{"structure-string": "Cc1cccc(-c2ccc(C(=O)N3Cc4cccn4Cc4ccccc43)cc2)c1", "Urine Volume (% decrease) / %": 27}
{"structure-string": "O=C(c1ccc(-c2ccccc2)cc1)N1CCCCc2sccc21", "Urine Volume (% decrease) / %": 35}

Hey, quick one: what's Urine Volume (% decrease) for each of these?
1. O=C(c1ccc(-c2ccccc2)cc1)N1Cc2cccnc2Nc2ccccc21
2. O=C(c1ccc(-c2ccccc2)cc1)N1Cc2ccccc2Nc2ccccc21
3. COc1ccc(-c2ccc(C(=O)N3Cc4cccn4Cc4ccccc43)cc2)cc1
4. COc1ccccc1-c1ccc(C(=O)N2Cc3cccn3Cc3ccccc32)cc1

Solution:
[56, 87, 18, 67]
